Tested on: HCMV recombinant mutant virus whose genome contains the prokaryotic beta-glucuronidase gene
test details: microbe, parasite or virus in culture
Type: cell-based, human cytomegalovirus
test settings: Human betaherpesvirus 5, Fibroblast, read-out: IC50 ug/ml HCMV, HCMV, human foreskin fibroblasts
Exercise: for every item that follows, state its recorded IC50.

Exercise: Give the reported value of IC50 for this record: O=C(Nc1ccc(NC(=S)Nc2ccc(Cl)cc2)cc1)c1ccccc1F
Key: > 10 µg/mL

Exercise: State its IC50: Cc1ccc(NC(=S)Nc2ccc(NC(=O)c3ccccc3F)cc2)cc1Cl
Key: > 10 µg/mL

Exercise: Give IC50 for the following molecule: CN1CCN(c2cc(NC(=S)Nc3ccc(NC(=O)c4ccccc4F)cc3)cc(C(F)(F)F)c2)CC1
Key: > 0.5 µg/mL

Exercise: Provide measured IC50 value, entry: Cc1cc(CCNC(=S)Nc2ccc(NC(=O)c3ccccc3F)cc2)ccc1N(C)C
Key: > 0.5 µg/mL

Exercise: Read the entry CC(C)Oc1ccc(NC(=S)Nc2ccc(NC(=O)c3ccccc3F)cc2)cc1Cl and write its reported IC50.
Key: > 10 µg/mL

Exercise: Consider the molecule CC(NC(=S)Nc1ccc(NC(=O)c2ccccc2C(F)(F)F)cc1)c1cc2ccccc2o1 (stereo not shown) . State its measured IC50.
Key: > 10 µg/mL

Exercise: Give reported IC50 value for CN(C)CC(=O)Nc1ccc(NC(=S)Nc2ccc(NC(=O)c3ccccc3F)cc2)cc1Cl
Key: > 10 µg/mL

Exercise: Provide IC50 value for the following molecule: CC(NC(=S)Nc1ccc(NC(=O)c2cc3ccccc3cn2)cc1)c1cc2ccccc2o1 (stereo not shown)
Key: > 10 µg/mL

Exercise: State its IC50: O=C(Nc1ccc(NC(=S)Nc2cc(N3CCCC3)cc(C(F)(F)F)c2)cc1)c1ccccc1F
Key: > 0.5 µg/mL

Exercise: Kindly indicate its recorded IC50. Item: CCOC(=O)COc1cccc(C(=O)Nc2ccc(NC(=S)Nc3cc(Cl)c(OC)cc3OC)cc2)c1
Key: > 10 µg/mL

Exercise: Indicate the recorded IC50 value for this molecule: CC(C)COc1ccc(NC(=S)Nc2ccc(NC(=O)c3ccccc3F)cc2)cc1Cl
Key: > 10 µg/mL

Exercise: Please give the documented IC50 of O=C(Nc1ccc(NC(=S)Nc2cc(N3CCCCC3)cc(C(F)(F)F)c2)cc1)c1ccccc1F
Key: > 0.5 µg/mL

Exercise: Quote IC50 reported for COc1ccccc1C(=O)Nc1ccc(NC(=S)NC(C)c2ccc(C#N)cc2)cc1 (stereo not shown) please.
Key: > 10 µg/mL

All values here come from patent EP1137645B1.
